system: HT29 colon; assay: NCI tumour cell line growth inhibition, 48 h
Documented TGI across a set of compounds

>  <compound>
[2H]C([2H])([2H])NC(=O)c1nnc(NC(=O)C2CC2)cc1Nc1cccc(-c2ncn(C)n2)c1OC

>  <assayed.target>
HT29 colon

>  <sign>
>

>  <TGI / µM>
100

$$$$
>  <compound>
Cn1nc2ccc(Nc3cc(=O)[nH]c4ccc5nn(C)nc5c34)cc2n1

>  <assayed.target>
HT29 colon

>  <sign>
>

>  <TGI / µM>
100

$$$$
>  <compound>
Cc1ccc(S(=O)(=O)N/N=C(\c2nc3ccc(Cl)cc3[nH]c2=O)C(O)c2ccco2)cc1 (stereo not given)

>  <assayed.target>
HT29 colon

>  <sign>
>

>  <TGI / µM>
100

$$$$
>  <compound>
Cc1cn2c(/C=C3/C(=O)Nc4c3ccc3ccccc43)c(C(F)(F)F)nc2s1

>  <assayed.target>
HT29 colon

>  <sign>
=

>  <TGI / µM>
14.2

$$$$
>  <compound>
Oc1c(C(Nc2ccccc2Br)c2ccccc2)ccc2cccnc12 (stereo not given)

>  <assayed.target>
HT29 colon

>  <sign>
=

>  <TGI / µM>
84.3

$$$$
>  <compound>
O=c1c2c([nH]c3nccn13)CCC2

>  <assayed.target>
HT29 colon

>  <sign>
>

>  <TGI / µM>
10

$$$$
>  <compound>
NC(Cc1ccc(OCc2ccccc2)cc1)C(=O)NC(Cc1ccccc1)C(=O)Oc1c(Cl)c(Cl)c(Cl)c(Cl)c1Cl (stereo not given)

>  <assayed.target>
HT29 colon

>  <sign>
=

>  <TGI / µM>
32.1

$$$$
>  <compound>
N#CC1(C#N)C(C#N)(C#N)C1(C#N)C(N)=O

>  <assayed.target>
HT29 colon

>  <sign>
>

>  <TGI / µM>
100

$$$$
>  <compound>
O=S(=O)(O)O

>  <assayed.target>
HT29 colon

>  <sign>
=

>  <TGI / µM>
1450

$$$$
>  <compound>
COC(=O)CCC(NC(=S)N/N=C(\C)c1ccc[nH]1)C(=O)OC (stereo not given)

>  <assayed.target>
HT29 colon

>  <sign>
>

>  <TGI / µM>
100

$$$$
